Cited source: PubChem BioAssay AID1159580

Measured normalized growth of individual entries
assay: chemical genetic growth profiling, strain panel (AID 1159580);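 further: tested at 20 µM; growth read once vehicle control cultures reached saturation at 30 °C; 1 = growth at the plate median or of vehicle wells; lower values mean less growth of the strain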; settings: S. cerevisiae deletion strains, growth OD, locus YGR229C, strain SMI1, hits give low values
Among all 5,500 compounds or so, about 2,000 (36%) were called active. About 18% were inconclusive and are not listed. The list shows a part of the results.
test readout: normalized growth

molecule	recorded measurement
Cn1nnnc1SCC1=C(C(=O)O)N2C(=O)C(NC(=O)C(O)c3ccccc3)C2SC1 (configuration not stated)	1.03 (inactive)
Cc1coc2ccccc2c1=O	0.991 (inactive)
COc1ccc(-c2cc(=O)c3cc(OC)ccc3o2)cc1	0.961 (inactive)
CCN(CCCCOC(=O)c1ccc(OC)c(OC)c1)C(C)Cc1ccc(OC)cc1 (configuration not stated)	0.978 (inactive)
C[N+]1(CCCCC[N+]2(C)CCCC2)CCCC1	1.01 (inactive)
CCN1CN=C(SCc2ccc(C)cc2)NC1	1 (inactive)
CC(=O)[C@H]1CCC2C3CC=C4C[C@@H](O)CC[C@]4(C)C3CC[C@@]21C (some centres not stated)	0.958 (inactive)
CC(=O)CC(c1ccccc1)c1c(O)c2ccccc2oc1=O (configuration not stated)	1.02 (inactive)
CC1=CCc2c(cc3oc(C)cc(=O)c3c2O)OC1	0.679 (active)
C=CCCCCCCCCCCCC(O)CC(O)CO (configuration not stated)	0.947 (inactive)
Clc1ccc(Cl)cc1	1.02 (inactive)
COc1cccc(-c2cc(=O)c3cc(OC)ccc3o2)c1	0.858 (inactive)

###

experiment: chemical genetic growth profiling, strain panel (AID 1159580);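 further: tested at 20 µM; growth read once vehicle control cultures reached saturation at 30 °C; 1 = growth at the plate median or of vehicle wells; lower values mean less growth of the strain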; conditions: S. cerevisiae deletion strains, growth OD, locus YDR159W, strain sac3, hits give low values
Among all 5,500 compounds or so, about 2,000 (36%) were called active. About 18% were inconclusive and are not listed. The list shows a part of the results.
test readout: normalized growth

molecule	test readout	recorded measurement
COc1ccc(-c2cc(=O)c3c(OC(C)=O)cc(OC(C)=O)cc3o2)cc1	normalized growth	0.974
O=C1CC[C@]23C=CC(=O)NCCCCNCCCNC(=O)/C=C/c4ccc(c2c4)O[C@@H]3C1	normalized growth	1.03
COC(=O)C1=C(C)NC(C)=C(C(=O)OC)C1c1ccccc1[N+](=O)[O-]	normalized growth	0.918
CC(C(=O)O)[C@H]1CCC2C3CC=C4C[C@@H](O)CC[C@]4(C)C3CC[C@@]21C (some centres undefined)	normalized growth	1.04
COc1cc2cc[n+]3cc4c(OC)c(OC)ccc4cc3c2cc1OC	normalized growth	0.982
CC(C)c1ccc2c(c1O)CC[C@H]1C3=C(CC[C@]21C)C(=O)OC3	normalized growth	1
O=c1cc(-c2ccc(O)c(O)c2)oc2ccccc12	normalized growth	0.971
COCCOC(=O)C1=C(C)NC(C)=C(C(=O)OC(C)C)C1c1cccc([N+](=O)[O-])c1 (centres undefined)	normalized growth	0.967
CN(C)CC/C=C1/c2ccccc2COc2ccccc21	normalized growth	1.05
CN(C)C(=O)Oc1cc(OC(=O)N(C)C)cc(C(O)CNC(C)(C)C)c1 (centres undefined)	normalized growth	1.05
COc1cccc(-c2cc(=O)c3ccc(OC)cc3o2)c1	normalized growth	0.921
FC(F)(F)C(Cl)Br (centres undefined)	normalized growth	1.04
CC(=O)Oc1ccc(-c2cc(=O)c3c(OC(C)=O)cc(OC(C)=O)cc3o2)cc1	normalized growth	0.935
CC(=O)O[C@H]1C[C@@]2(C)[C@H](c3ccoc3)OC(=O)[C@H]3O[C@]32[C@@]2(C)C1[C@]1(C)C(C[C@H]2OC(C)=O)C(C)(C)[C@H](OC(C)=O)C[C@@H]1OC(C)=O (some centres undefined)	normalized growth	0.918
NCC(=O)CCC(=O)O	normalized growth	1
C=C1C(N)CC2CC1C2(C)C (centres undefined)	normalized growth	0.975
CC(=O)O[C@H]1C[C@@H](O)C(C)(C)C2C[C@@H](OC(C)=O)[C@]3(C)C(CC[C@@]4(C)[C@H](c5ccoc5)OC(=O)C5OC543)[C@]21C (some centres undefined)	normalized growth	1.01
CCCCCCc1ccc(O)cc1O	normalized growth	0.525
CCCCC1C(=O)N(c2ccccc2)N(c2ccccc2)C1=O	normalized growth	0.972
CN1CCN2c3ccccc3Cc3ccccc3C2C1 (centres undefined)	normalized growth	0.988
O=c1c2ccccc2oc2ccccc12	normalized growth	0.989
CC(=O)[C@H]1CCC2C3CC=C4C[C@@H](OC(=O)CCC(=O)O)CC[C@]4(C)C3CC[C@@]21C (some centres undefined)	normalized growth	0.943
CCCCCCCCCc1ccc(O)cc1	normalized growth	0.0748
CN(C)CCC=C1c2ccccc2CCc2ccccc21	normalized growth	0.962
COc1cc([C@@H]2c3cc4c(cc3[C@H](OC(C)=O)[C@H]3COC(=O)[C@H]23)OCO4)cc(OC)c1OC	normalized growth	1.01
C[n+]1cc2c3c(ccc2c2ccc4cc5c(cc4c21)OCO5)OCO3	normalized growth	0.62
CC1(C)O[C@@H]2CC3C4C[C@H](F)C5=CC(=O)C=C[C@]5(C)[C@@]4(F)[C@@H](O)C[C@]3(C)[C@]2(C(=O)CO)O1 (some centres undefined)	normalized growth	0.973
CC(=O)CC(c1ccccc1)c1c(O)c2ccccc2oc1=O (centres undefined)	normalized growth	1.02
O=C1CCc2cc(OCCCCc3nnnn3C3CCCCC3)ccc2N1	normalized growth	0.978
CC(=O)N(O)CCCCCNC(=O)CCC(=O)N(O)CCCCCNC(=O)CCC(=O)N(O)CCCCCN	normalized growth	1.05
O=c1oc2ccccc2c(O)c1Cc1c(O)c2ccccc2oc1=O	normalized growth	0.936
CC(=O)O[C@@H]1CC2C(C)(C)[C@H](O)C[C@H](O)[C@]2(C)C2CC[C@@]3(C)[C@H](c4ccoc4)OC(=O)[C@H]4O[C@]43[C@@]21C (some centres undefined)	normalized growth	0.968
CC(=O)OCC(=O)[C@@]1(O)CCC2C3CC[C@@H]4C[C@H](O)CC[C@]4(C)C3C(=O)C[C@@]21C (some centres undefined)	normalized growth	1.01
Nc1nc(N)c2nc(-c3ccccc3)c(N)nc2n1	normalized growth	0.951
CN(C)CCC=C1c2ccccc2C=Cc2ccccc21	normalized growth	1
O=C(O)/C=C(\CC(=O)O)C(=O)O	normalized growth	0.96
O=c1cc(-c2ccc(O)cc2)oc2ccc(O)cc12	normalized growth	0.954
CCC(/C=C/[C@@H](C)[C@H]1CCC2C3CC=C4C[C@@H](O)CC[C@]4(C)C3CC[C@@]21C)C(C)C (some centres undefined)	normalized growth	0.959
CNCCC=C1c2ccccc2CCc2ccccc21	normalized growth	0.955
